Provenance of the data: patent US20260035462A1

assayed system: biotinylated anti-human CD3ε antibody (capture surface of Example 6)
test: SPR Biacore T200; IgG 1 ug/ml over captured biotinylated anti-human CD3ε antibody, normalised to anti-human IgG surface and to the unstressed sample; sample stressed 14 d/40° C. pH 6.0
observation type: Relative active concentrations (%)
Give your result in % as a bare value.

Here are 2 binders together with their reported answers.
{"binder": "P1AF1287 H7L5 anti-idiotypic IgG1 (antibody, V domains shown) VH: QVQLVQSGAEVKKPGASVKVSCKASGYTVTDYSMNWVRQAPGQGLEWMGWINTETGEPRYTDDFKGRVTMTRDTSISTAYMELSRLRSDDTAVYYCAREGDYDVFDYWGQGTLVTVSS VL: DIVMTQSPDSLAVSLGERATINCRASKSVSTSSYSYMHWYQQKPGQPPKLLIYYVSYLESGVPDRFSGSGSGTDFTLTISSLQAEDVAVYYCQHSREFPYTFGQGTKLEIK", "recorded value": 98}
{"binder": "P1AF1283 H1L2 anti-idiotypic IgG1 (antibody, V domains shown) VH: QVQLVQSGSELKKPGASVKVSCKASGYTVTDYSMNWVRQAPGQGLEWMGWINTETGEPRYTDDFKGRFVFSLDTSVSTAYLQISSLKAEDTAVYYCAREGDYDVFDYWGQGTLVTVSS VL: DIVMTQSPDSLAVSLGERATINCKSSKSVSTSSYSYMHWYQQKPGQPPKLLIKYVSYLESGVPDRFSGSGSGTDFTLTISSLQAEDVAVYYCQHSREFPYTFGQGTKLEIK", "recorded value": 97}

With those in mind, consider the next binder.
Query: Fill blank: measured Relative active concentrations (%) of the binder P1AF1281 H1L1 anti-idiotypic IgG1 (antibody, V domains shown) VH: QVQLVQSGSELKKPGASVKVSCKASGYTVTDYSMNWVRQAPGQGLEWMGWINTETGEPRYTDDFKGRFVFSLDTSVSTAYLQISSLKAEDTAVYYCAREGDYDVFDYWGQGTLVTVSS VL: DIVMTQSPDSLAVSLGERATINCRASKSVSTSSYSYMHWYQQKPGQPPKLLIKYVSYLESGVPDRFSGSGSGTDFTLTISSLQAEDVAVYYCQHSREFPYTFGQGTKLEIK is ____.
Result: 99
